For each record, write down the corresponding IC50 of scFv in BaF3-IL-22 proliferation assay.
Target: T1, human IL-22 (human, UniProt Q9GZX6 34-179)
T1 sequence: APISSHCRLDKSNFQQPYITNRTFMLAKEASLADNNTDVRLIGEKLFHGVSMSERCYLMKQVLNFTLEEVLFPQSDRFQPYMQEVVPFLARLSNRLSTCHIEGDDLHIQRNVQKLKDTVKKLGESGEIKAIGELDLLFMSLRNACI
Assay: cell-based or functional assay

The cases that follow already have their IC50 of scFv in BaF3-IL-22 proliferation assay on record.
356A11 scFv (non-germlined) (scFv, Optimized clone derived from GIL92) scFv: QVQLVQSGAEVKKPGASVKVSCKASGYTFTNYYMHWVRQAPGQGLEWVGWINPYTGSAFYAQKFRGRVTMTRDTSINTAYMELSRLGSDDTAVYYCAREPEKFDSDDSDVWGRGTMVTVSGGGGSSGGGGSGGSGSAQAVLTPPSVSGAPGQRVTISCTGSSSNIGAGYGVHWYQQLPGTAPKLIIYGDSSRPSGVPDRFSGSKSGTSASLAITGLQAEDEADYYCQSYDNSLSGYVFGTGTQLTVLSA | 0.124 nM
367D04 scFv (non-germlined) (scFv, Optimized clone derived from GIL60) scFv: EVQLVESGGGVVRPGGSLRLSCAASGFTFDDYGMNWVRQAPGKGLEWVSGVNWNGGTRDYAASVKGRFTISRDNAKNSLYLQMNSLRAEDTALYYCARGWYSGSPWSLGHWGRGTLVTVSSGGGGSGGGGSGGSGGGSGGSGGGSSGGGSGGGGSAQAVLTQPSSVSGSPGQSVTISCTGASGDVGAYNFVSWYQQHPGKTPKLIIYDVNKRPSGVSNRFSGSKSGNTASLTISRLQAEDESDYYCSSYTSRYTTEFGGGTKVTVLGAAAH | 0.16 nM

So what does the record say about IC50 of scFv in BaF3-IL-22 proliferation assay for 355E04 scFv (non-germlined) (scFv, Optimized clone derived from GIL92) scFv: QVQLVQSGAEVKKPGASVKVSCKASGYTFTHYYMHWVRQAPGQGLEWVGWINPYTGGAFYAQKFQGRVTMTRDTSINTAYMELSRLGSDDTAVYYCAREPEKFDSPNAEIWGRGTMVTISSEGGGSGGGGSGGSGSAQAVLTQPSSVSGAPGQRVTISCTGSSSNIGAGYGVHWYQQLPGTAPKLLIYGNSNRPSGVPDRFSGSKSGTSASLAITGLQAEDEADYYCQSYDSSLSGYVFGTGTQLTVLSA ?
0.192 nM
